- Test system: LG0567-F671-PDC complex spheroids viability;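 also: spheroids exposed to compound for seven days before readout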
- procedure.details: Anticancer human tumor LG0567-F671-PDC patient-derived lung adenocarcinoma cell line growth inhibition [RAS]
- conditions.used: second compound 1 µM; first compound 3.16 µM; stronger effect = lower value
Threshold-based label: viability, T/C under 5% gives MET, viability, T/C not under 5% gives NOT MET.

Just wondering, is viability, T/C of CC1(O)CCCC1n1c(=O)c(C(F)F)cc2cnc(NC3CCN(S(C)(=O)=O)CC3)nc21 (stereo unspecified) + C#Cc1c(F)ccc2cc(O)cc(-c3ncc4c(N5CC6CCC(C5)N6)nc(OCC56CCCN5CC(F)C6)nc4c3F)c12 below 5%? NOT MET

Just wondering, is viability, T/C of Cc1nc(N2CCC3(CC2)COC(C)C3N)c(CO)nc1Sc1ccnc(N)c1Cl (stereo unspecified) + C=CC(=O)N1CCN(c2nc(OCC3CCCN3C)nc3c(F)c(-c4nc(N)cc(C)c4C(F)(F)F)c(Cl)cc23)C(C)C1 below 5%? MET

Just wondering, is viability, T/C of CC(=O)OC12COC1CC(O)C1(C)C(=O)C(O)C3=C(C)C(OC(=O)C(O)C(NC(=O)OC(C)(C)C)c4ccccc4)CC(O)(C(OC(=O)c4ccccc4)C21)C3(C)C (stereo unspecified) + C=CC(=O)N1CCN(c2nc(OCC3CCCN3C)nc3c(F)c(-c4nc(N)cc(C)c4C(F)(F)F)c(Cl)cc23)C(C)C1 below 5%? NOT MET

Just wondering, is viability, T/C of C[C@@H](NC(=O)c1ncnc(N)c1Cl)c1ncc(C(=O)Nc2cc(C(F)(F)F)c(Cl)cn2)s1 + C#Cc1c(F)ccc2cc(O)cc(-c3ncc4c(N5CC6CCC(C5)N6)nc(OCC56CCCN5CC(F)C6)nc4c3F)c12 below 5%? NOT MET

Just wondering, is viability, T/C of CC(Nc1ccc2c(c1)OCCn1cc(N3C(=O)OCC3C(F)F)nc1-2)C(N)=O (stereo unspecified) + C#Cc1c(F)ccc2cc(O)cc(-c3ncc4c(N5CC6CCC(C5)N6)nc(OCC56CCCN5CC(F)C6)nc4c3F)c12 below 5%? NOT MET

Just wondering, is viability, T/C of CCC(CC)c1cc(NC2CCC(N)C2)n2nccc2n1 (stereo unspecified) + C#Cc1c(F)ccc2cc(O)cc(-c3ncc4c(N5CC6CCC(C5)N6)nc(OCC56CCCN5CC(F)C6)nc4c3F)c12 below 5%? MET

Just wondering, is viability, T/C of C[C@@H](NC(=O)c1ncnc(N)c1Cl)c1ncc(C(=O)Nc2cc(C(F)(F)F)c(Cl)cn2)s1 + C=CC(=O)N1CCN(c2nc(OCC3CCCN3C)nc3c(F)c(-c4nc(N)cc(C)c4C(F)(F)F)c(Cl)cc23)C(C)C1 below 5%? NOT MET

Just wondering, is viability, T/C of NC1c2ccccc2OC12CCN(c1cnc3c(N4CCCc5ncccc54)n[nH]c3n1)CC2 (stereo unspecified) + C#Cc1c(F)ccc2cc(O)cc(-c3ncc4c(N5CC6CCC(C5)N6)nc(OCC56CCCN5CC(F)C6)nc4c3F)c12 below 5%? MET

Just wondering, is viability, T/C of CC1(O)CCCC1n1c(=O)c(C(F)F)cc2cnc(NC3CCN(S(C)(=O)=O)CC3)nc21 (stereo unspecified) + C=CC(=O)N1CCN(c2nc(OCC3CCCN3C)nc3c(F)c(-c4nc(N)cc(C)c4C(F)(F)F)c(Cl)cc23)C(C)C1 below 5%? NOT MET

Just wondering, is viability, T/C of CC(Nc1ccc2c(c1)OCCn1cc(N3C(=O)OCC3C(F)F)nc1-2)C(N)=O (stereo unspecified) + C=CC(=O)N1CCN(c2nc(OCC3CCCN3C)nc3c(F)c(-c4nc(N)cc(C)c4C(F)(F)F)c(Cl)cc23)C(C)C1 below 5%? NOT MET

Just wondering, is viability, T/C of CC(=O)OC12COC1CC(O)C1(C)C(=O)C(O)C3=C(C)C(OC(=O)C(O)C(NC(=O)OC(C)(C)C)c4ccccc4)CC(O)(C(OC(=O)c4ccccc4)C21)C3(C)C (stereo unspecified) + C#Cc1c(F)ccc2cc(O)cc(-c3ncc4c(N5CC6CCC(C5)N6)nc(OCC56CCCN5CC(F)C6)nc4c3F)c12 below 5%? NOT MET

Just wondering, is viability, T/C of CC(C)NCC(C(=O)N1CCN(c2ncnc3c2C(C)CC3O)CC1)c1ccc(Cl)cc1 (stereo unspecified) + C#Cc1c(F)ccc2cc(O)cc(-c3ncc4c(N5CC6CCC(C5)N6)nc(OCC56CCCN5CC(F)C6)nc4c3F)c12 below 5%? NOT MET

Just wondering, is viability, T/C of CC(C)NCC(C(=O)N1CCN(c2ncnc3c2C(C)CC3O)CC1)c1ccc(Cl)cc1 (stereo unspecified) + C=CC(=O)N1CCN(c2nc(OCC3CCCN3C)nc3c(F)c(-c4nc(N)cc(C)c4C(F)(F)F)c(Cl)cc23)C(C)C1 below 5%? NOT MET

Just wondering, is viability, T/C of CCC(CC)c1cc(NC2CCC(N)C2)n2nccc2n1 (stereo unspecified) + C=CC(=O)N1CCN(c2nc(OCC3CCCN3C)nc3c(F)c(-c4nc(N)cc(C)c4C(F)(F)F)c(Cl)cc23)C(C)C1 below 5%? MET

Just wondering, is viability, T/C of Cc1nc(N2CCC3(CC2)COC(C)C3N)c(CO)nc1Sc1ccnc(N)c1Cl (stereo unspecified) + C#Cc1c(F)ccc2cc(O)cc(-c3ncc4c(N5CC6CCC(C5)N6)nc(OCC56CCCN5CC(F)C6)nc4c3F)c12 below 5%? MET

Just wondering, is viability, T/C of NC1c2ccccc2OC12CCN(c1cnc3c(N4CCCc5ncccc54)n[nH]c3n1)CC2 (stereo unspecified) + C=CC(=O)N1CCN(c2nc(OCC3CCCN3C)nc3c(F)c(-c4nc(N)cc(C)c4C(F)(F)F)c(Cl)cc23)C(C)C1 below 5%? MET
